Entry source: ChEMBL document CHEMBL2069259

assayed_target: UniProtKB P33261
Sequence (P33261 whole entry): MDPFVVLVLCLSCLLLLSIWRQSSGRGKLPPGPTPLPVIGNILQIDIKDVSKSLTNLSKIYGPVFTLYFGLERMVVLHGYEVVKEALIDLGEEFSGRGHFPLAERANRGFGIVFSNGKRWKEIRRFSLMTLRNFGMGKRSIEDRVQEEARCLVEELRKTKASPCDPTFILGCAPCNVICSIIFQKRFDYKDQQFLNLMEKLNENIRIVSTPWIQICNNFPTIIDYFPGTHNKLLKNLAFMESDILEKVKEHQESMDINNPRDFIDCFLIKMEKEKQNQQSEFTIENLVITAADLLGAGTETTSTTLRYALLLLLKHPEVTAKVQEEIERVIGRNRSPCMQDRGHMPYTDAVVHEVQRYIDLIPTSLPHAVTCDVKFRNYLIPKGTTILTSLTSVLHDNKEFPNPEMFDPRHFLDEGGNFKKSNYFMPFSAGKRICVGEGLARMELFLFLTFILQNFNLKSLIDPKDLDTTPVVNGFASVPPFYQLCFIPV
measurement_notes: Inhibition of human CYP2C19 assessed as ratio of IC50 in absence of NADPH to IC50 for presence of NADPH using 3-butyryl-7-methoxycoumarin as substrate after 30 mins
measurement_context: probe 3-butyryl-7-methoxycoumarin
Starred links: 1 amine or outer side, 2 acyl side, 3 side chain; linkers in the order of their positions; H or OH if unused. Positions of bridges follow the written chain, without caps; N, C: chain ends. Non-standard residues stand in square brackets, D forms with d. Residues, ends and D or L forms follow the SMILES beside them. Chains are numbered I, II in the order given. Actinocin(9to1) = Cc1c2oc3c(C)ccc(C(=O)[*:1])c3nc-2c(C(=O)[*:2])c(N)c1=O; NMeV = CN[C@H](C(=O)O)C(C)C; Sar = CNCC(=O)O
property_name: IC50 shift at 0.5 h

molecule	assayed_target	property_name	observed_result
COc1ccccc1OCC(O)COC(N)=O (centres undefined)	UniProtKB P33261	IC50 shift at 0.5 h	< 2
CC(COc1ccccc1)N(CCCl)Cc1ccccc1 (centres undefined)	UniProtKB P33261	IC50 shift at 0.5 h	2
CN(C)CCC=C1c2ccccc2CCc2ccccc21	UniProtKB P33261	IC50 shift at 0.5 h	< 2
O=C(O)c1cc(/N=N/c2ccc(S(=O)(=O)Nc3ccccn3)cc2)ccc1O	UniProtKB P33261	IC50 shift at 0.5 h	< 2
CC1=C(/C=C/C(C)=C/C=C/C(C)=C/C(=O)O)C(C)(C)CCC1	UniProtKB P33261	IC50 shift at 0.5 h	2
C[C@@H]1[C@H](O)[C@@H](C)/C=C/C=C/C=C/C=C/C=C/C=C/C=C/[C@H](O[C@@H]2O[C@H](C)[C@@H](O)[C@H](N)[C@@H]2O)C[C@@H]2O[C@](O)(C[C@@H](O)C[C@@H](O)[C@H](O)CC[C@@H](O)C[C@@H](O)CC(=O)O[C@H]1C)C[C@H](O)[C@H]2C(=O)O	UniProtKB P33261	IC50 shift at 0.5 h	< 2
Cc1c2oc3c(C)ccc(C(=O)N[C@@H]4C(=O)N[C@H](C(C)C)C(=O)N5CCC[C@H]5C(=O)N(C)CC(=O)N(C)[C@@H](C(C)C)C(=O)O[C@@H]4C)c3nc-2c(C(=O)N[C@@H]2C(=O)N[C@H](C(C)C)C(=O)N3CCC[C@H]3C(=O)N(C)CC(=O)N(C)[C@@H](C(C)C)C(=O)O[C@@H]2C)c(N)c1=O [DACTINOMYCIN] (I: T[dV]P[Sar][NMeV] / II: T[dV]P[Sar][NMeV]; ester I:1-I:C, II:1-II:C; linker I:N-II:N via Actinocin(9to1))	UniProtKB P33261	IC50 shift at 0.5 h	< 2
Cc1coc2c1CCC(C)C2 (centres undefined)	UniProtKB P33261	IC50 shift at 0.5 h	< 2
Cc1cccc(CN2CCN(C(c3ccccc3)c3ccc(Cl)cc3)CC2)c1 (centres undefined)	UniProtKB P33261	IC50 shift at 0.5 h	> 5
